B1: CFHR2 (parent)
chain: FVENGHSESSGQTHLEGDTVQIIC

Variants of: B1
Assay: protein stability index of a GFP-peptide fusion (GPS, HEK-293T) (PSI 1-6); higher = more stable;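 note: lentivirally expressed fusions sorted by FACS into six bins by GFP to DsRed ratio, PSI derived from sequencing read proportions per bin multiplied by bin number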
Conditions: c terminus: a fixed tail appended
measure-name: protein stability index

• FVENGHSESSGQTHLEGDTCQIIC = 2.69
• FVENVHSESSGQTHLEGDTVQIIC = 2.87
• FVENGHSESSGQNHLEGDTVQIIC = 3.35
• FVENGHSTSSGQTHLEGDTVQIIC = 2.16
• FVKNGHSESSGQTHLEGDTVQIIC = 1.78
• FVPNGHSESSGQTHLEGDTVQIIC = 2.38
• FVWNGHSESSGQTHLEGDTVQIIC = 1.56
• FVENGHSEPSGQTHLEGDTVQIIC = 2.75
• FVENGHSESSGQTHLEGDMVQIIC = 2.33
• FVENLHSESSGQTHLEGDTVQIIC = 2.77
• FVENIHSESSGQTHLEGDTVQIIC = 2.2
• FVENGHSESSGNTHLEGDTVQIIC = 3.39
• FVENGHSESSGQTHLEGQTVQIIC = 2.47
• FVENGHSESSGQTHLEGDTVQIWC = 2.35
• FVENGHSESSGQIHLEGDTVQIIC = 2.06
• FVENGHSESSGQTHSEGDTVQIIC = 3.22
• FVENGHNESSGQTHLEGDTVQIIC = 3.14
• FVENGHKESSGQTHLEGDTVQIIC = 2.84
• FVENGHSESSGQTHLEGDTRQIIC = 3.3
• FVENGHSEHSGQTHLEGDTVQIIC = 2.77
• FVENGHSESSGQTRLEGDTVQIIC = 2.89
• FVENGHSESSGQTHLEGDTVQNIC = 3.49
• FVESGHSESSGQTHLEGDTVQIIC = 2.4
• FPENGHSESSGQTHLEGDTVQIIC = 3.88
• FVENGHSESSGQTHLEVDTVQIIC = 2.11
• FVENGHSESSGQTHLQGDTVQIIC = 2.33
• FVENGHSESSGQHHLEGDTVQIIC = 2.34
• FVENGHSESSGQTHLEGDTLQIIC = 2.45
• FVENGHSESSGQLHLEGDTVQIIC = 2.29
• GVENGHSESSGQTHLEGDTVQIIC = 4.33
• FVENGHSESSGQTHLEGDTVQRIC = 3.53
• FVENPHSESSGQTHLEGDTVQIIC = 2.27
• FVENGHLESSGQTHLEGDTVQIIC = 3.1
• FVENGHSESSAQTHLEGDTVQIIC = 2.56
• FVENGHSESSGSTHLEGDTVQIIC = 2.49
• FVECGHSESSGQTHLEGDTVQIIC = 1.98
• FVEDGHSESSGQTHLEGDTVQIIC = 3.92
• FHENGHSESSGQTHLEGDTVQIIC = 3.82
• FVGNGHSESSGQTHLEGDTVQIIC = 2.83
• FVENGHSPSSGQTHLEGDTVQIIC = 2.51
• FVENGHSESSGQTHLEGLTVQIIC = 2.62
• FVENGHSWSSGQTHLEGDTVQIIC = 3.2
• FVENGHSESSGQTHCEGDTVQIIC = 2.78
• FVENGHSESSGQTHLEGDTVQPIC = 3.99
• FVENGHVESSGQTHLEGDTVQIIC = 2.39
• FVENGHSCSSGQTHLEGDTVQIIC = 1.82
• FVEQGHSESSGQTHLEGDTVQIIC = 2.81
• FVENGHSESSGQTHLEGDTVQIQC = 3.35
• FVENGHSESDGQTHLEGDTVQIIC = 3.51
• CVENGHSESSGQTHLEGDTVQIIC = 3.73
• FVENGHSESSGQTHLEGDTVSIIC = 2.91
• FVENGHSESSGQTHDEGDTVQIIC = 3.4
• FVENGHSESSGQTHLEGDTVQIIW = 3.05
• FVENGHSESSGQTHLEGPTVQIIC = 2.23
• FVENRHSESSGQTHLEGDTVQIIC = 1.82
• FEENGHSESSGQTHLEGDTVQIIC = 4.54
• FVENGHSESSGQTHLNGDTVQIIC = 2.15
• FVENGHSESSGQTKLEGDTVQIIC = 2.35
• FVENGHSESSGQTHLEGDTVQIAC = 3.95
• FVENGHSELSGQTHLEGDTVQIIC = 1.99
• FVENFHSESSGQTHLEGDTVQIIC = 2.55
• RVENGHSESSGQTHLEGDTVQIIC = 3.83
• IVENGHSESSGQTHLEGDTVQIIC = 4
• FVENGHPESSGQTHLEGDTVQIIC = 3.12
• FVCNGHSESSGQTHLEGDTVQIIC = 1.38
• FVENGHMESSGQTHLEGDTVQIIC = 2.19
• FVENQHSESSGQTHLEGDTVQIIC = 2.57
• FVENGHSQSSGQTHLEGDTVQIIC = 2.15
• FVENGISESSGQTHLEGDTVQIIC = 2.57
• FVENGHSESSGQTHLEPDTVQIIC = 2.81
• FVENGHSESSGQTHLEGDEVQIIC = 3.09
• FVENGHSESSGQTHLEGNTVQIIC = 2.25
• NVENGHSESSGQTHLEGDTVQIIC = 4.1
• FVENGHSESSGQTHLEGDTVQIIY = 2.08
• FVENGHSISSGQTHLEGDTVQIIC = 1.57
• FVENGHSESSGHTHLEGDTVQIIC = 2.4
• FVENGHSESSGQTHLEGGTVQIIC = 2.3
• FCENGHSESSGQTHLEGDTVQIIC = 4
• FVENGHSESSGQYHLEGDTVQIIC = 2.19
• FVENGHSESSGQTHLEGDTVQEIC = 4.08
• FVENGNSESSGQTHLEGDTVQIIC = 3.52
• FVENGHSESSGQTLLEGDTVQIIC = 2.37
• FVENGHSESSGQTHLAGDTVQIIC = 2.13
• FVENGHSESSGQTHLEGDTVQIIA = 3.96
• FVENGHSESSGYTHLEGDTVQIIC = 1.62
• FVENGHSESSLQTHLEGDTVQIIC = 2.5
• FVENGHSEDSGQTHLEGDTVQIIC = 3.23
• FVENGHSESSGQTHLEGITVQIIC = 2.02
• FVENGHSESSGQTHLEGDVVQIIC = 3.3
• FVENGHSESSGQTHLEGDTVGIIC = 3.01
• FVENGHSESQGQTHLEGDTVQIIC = 2.77

Every entry's value here was drawn from the supplement of paper PMC10567573.
